# Test system: CYP1A (combined CYP1A1 and CYP1A2)
# assay_details: Human P450 inhibition in human liver microsomes, CYP1A (ethoxyresorufin)
# condition_set: human
measurement_type: selectivity ratio

>>> df
                                   compound                 experimental_system  result
0  Nc1cccc(-c2cccc(-c3c(-c4ccc(O)cc4)n[nH]c3N)c2)c1 [25a]  CYP1A (combined CYP1A1 and CYP1A2)  ~15000

###

# experimental_system: CYP121 (Mycobacterium tuberculosis, UniProt P9WPP7)
# Sequence (P9WPP7 whole entry): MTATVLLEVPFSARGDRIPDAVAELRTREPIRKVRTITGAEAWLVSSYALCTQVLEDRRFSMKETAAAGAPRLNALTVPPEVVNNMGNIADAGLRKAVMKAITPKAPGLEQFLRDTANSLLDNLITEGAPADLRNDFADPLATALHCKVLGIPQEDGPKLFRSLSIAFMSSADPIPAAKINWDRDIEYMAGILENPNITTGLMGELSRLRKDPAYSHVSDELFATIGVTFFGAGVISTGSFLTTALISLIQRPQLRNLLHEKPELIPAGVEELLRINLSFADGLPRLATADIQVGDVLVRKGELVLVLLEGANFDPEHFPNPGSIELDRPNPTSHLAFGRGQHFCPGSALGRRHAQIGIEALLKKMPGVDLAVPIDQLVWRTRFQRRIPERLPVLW
# assay_details: Native mass spectrometry of CYP121 with ligands
# Format: binding
# condition_set: Protein-Ligand Ratio 1:1
measurement_type: ligand binding stoichiometry, CYP121 Monomer

>>> df
                                   compound  number
0      Oc1ccc(Nc2cc(-c3ccc(O)cc3)n[nH]2)cc1       0
1  Nc1cccc(-c2cccc(-c3cn[nH]c3N)c2)c1 [19a]       0
2  Nc1cccc(-c2cccc(-c3c(-c4ccc(O)cc4)n[nH]c3N)c2)c1 [25a]       1
3  Oc1ccc(CNc2[nH]nc(-c3ccc(O)cc3)c2-c2ccc(O)cc2)cc1 [26a]       0
4  COc1ccc(-c2n[nH]c(N)c2-c2cccc(-c3cccc(N)c3)c2)cc1 [24a]       1

###

# experimental_system: CYP121 (Mycobacterium tuberculosis, UniProt P9WPP7)
# assay_details: Native mass spectrometry of CYP121 with ligands
# Type: binding
# condition_set: Protein-Ligand Ratio 1:25
measurement_type: Monomer (%) of CYP121

In [3]: df
Out[3]:
                                   compound  number
0  Nc1cccc(-c2cccc(-c3c(-c4ccc(O)cc4)n[nH]c3N)c2)c1 [25a]       0
1  Nc1cccc(-c2cccc(-c3cn[nH]c3N)c2)c1 [19a]      33
2  Oc1ccc(CNc2[nH]nc(-c3ccc(O)cc3)c2-c2ccc(O)cc2)cc1 [26a]      14
3      Oc1ccc(Nc2cc(-c3ccc(O)cc3)n[nH]2)cc1      12
4  COc1ccc(-c2n[nH]c(N)c2-c2cccc(-c3cccc(N)c3)c2)cc1 [24a]      16

###

ligand binding stoichiometry, CYP121 Dimer: recorded values
# experimental_system: CYP121 (Mycobacterium tuberculosis, UniProt P9WPP7)
# assay_details: Native mass spectrometry of CYP121 with ligands
# Type: binding
# condition_set: Protein-Ligand Ratio 1:0.5
measurement_type: ligand binding stoichiometry, CYP121 Dimer

>>> print(df.to_string())
                                   compound  number
0  COc1ccc(-c2n[nH]c(N)c2-c2cccc(-c3cccc(N)c3)c2)cc1 [24a]       1
1      Oc1ccc(Nc2cc(-c3ccc(O)cc3)n[nH]2)cc1       0
2  Nc1cccc(-c2cccc(-c3cn[nH]c3N)c2)c1 [19a]       0
3  Nc1cccc(-c2cccc(-c3c(-c4ccc(O)cc4)n[nH]c3N)c2)c1 [25a]       1
4  Oc1ccc(CNc2[nH]nc(-c3ccc(O)cc3)c2-c2ccc(O)cc2)cc1 [26a]       1

###

# experimental_system: CYP121 (Mycobacterium tuberculosis, UniProt P9WPP7)
# assay_details: Native mass spectrometry of CYP121 with ligands
# Type: binding
# condition_set: Protein-Ligand Ratio 1:1
measurement_type: Monomer (%) of CYP121

>>> print(df.to_string())
                                   compound                       experimental_system       measurement_type  result_unit  number
0  Nc1cccc(-c2cccc(-c3cn[nH]c3N)c2)c1 [19a]  CYP121 (Mycobacterium tuberculosis, UniProt P9WPP7)  Monomer (%) of CYP121            %      28
1      Oc1ccc(Nc2cc(-c3ccc(O)cc3)n[nH]2)cc1  CYP121 (Mycobacterium tuberculosis, UniProt P9WPP7)  Monomer (%) of CYP121            %      26
2  Nc1cccc(-c2cccc(-c3c(-c4ccc(O)cc4)n[nH]c3N)c2)c1 [25a]  CYP121 (Mycobacterium tuberculosis, UniProt P9WPP7)  Monomer (%) of CYP121            %      13
3  COc1ccc(-c2n[nH]c(N)c2-c2cccc(-c3cccc(N)c3)c2)cc1 [24a]  CYP121 (Mycobacterium tuberculosis, UniProt P9WPP7)  Monomer (%) of CYP121            %      16
4  Oc1ccc(CNc2[nH]nc(-c3ccc(O)cc3)c2-c2ccc(O)cc2)cc1 [26a]  CYP121 (Mycobacterium tuberculosis, UniProt P9WPP7)  Monomer (%) of CYP121            %      29
